# measurement protocol: Kinetic analysis via UV in mixed pooled gender liver S9 (10.0 mg/mL)
# Format: in vitro ADME, human
# cond: both sexes, human, pooled liver S9, pH 7.4, 100 μM to 8 mM, 312 nm
assay metric: Km
Answer format: number, then unit.

Exercise: What Km value was documented for this compound, CC(=O)Oc1cc(C)cc(C)c1C(C)(C)CC(=O)Nc1nc(=O)n([C@@H]2CS[C@H](CO)O2)cc1F [Compound 25] ?
Solution: 2400 µM

====

# measurement protocol: Half-life of emtricitabine amidine prodrug in human serum
# Assay type: in vitro ADME
# cond: normal human serum, 37° C.
assay metric: half-life at 1 mM (min)
Numbers only, in min.

Exercise: What half-life at 1 mM value was documented for this compound, CN(C)/C=N\c1nc(=O)n([C@@H]2CS[C@H](CO)O2)cc1F [Compound 23] ?
Solution: 348

====

# measurement protocol: Kinetic analysis of 5′-acyloxy/alkoxycarbonyl prodrug hydrolysis in human liver S9 (HPLC-UV)
# Format: in vitro ADME
# cond: both sexes, human, pooled human liver S9, pH 7.4; conversion to compound 13; 17: 5′-acetoxy hydrolysis, 1.0 mg/mL S9; 5: 5′-pentoxycarbonyl hydrolysis, 3.0 mg/mL S9; 37° C.
Could you please report measured Km for the items listed next?

Would you mind listing Km for each of the following molecules?
1. CCCCCOC(=O)Nc1nc(=O)n([C@@H]2CS[C@H](COC(C)=O)O2)cc1F [Compound 17]
2. CCCCCOC(=O)Nc1nc(=O)n([C@@H]2CS[C@H](COC(=O)OCCCCC)O2)cc1F [Compound 5]

Solution:
1: 1310 µM; 2: 600 µM

====

# measurement protocol: Kinetic analysis of trimethyl lock prodrug in mouse liver S9 via UV
# Assay type: in vitro ADME
# cond: both sexes, pooled mouse liver S9, pH 7.4; mouse liver S9 1.0 mg/mL, 600 μM to 6 mM
assay metric: Km (µM)
Give bare numbers, in µM.

Exercise: What Km value was documented for this molecule, CC(=O)Oc1cc(C)cc(C)c1C(C)(C)CC(=O)Nc1nc(=O)n([C@@H]2CS[C@H](CO)O2)cc1F ?
Solution: 1600

====

# measurement protocol: Half-life measurements in human plasma (HPLC-UV)
# Format: in vitro ADME
# cond: human, plasma, 37° C., hydrolysis through two potential pathways, read-out: hydrolysis half-life in human plasma (converted)
assay metric: half-life at 1 mM
Answer format: number, then unit.

Exercise: What half-life at 1 mM value was documented for this compound, CC(=O)Oc1cc(C)cc(C)c1C(C)(C)CC(=O)Nc1ncnc2c1ncn2C[C@@H](C)OCP(=O)(N[C@@H](C)C(=O)OC(C)C)Oc1ccccc1 (stereo partly shown) ?
Solution: 1.1 h

====

# measurement protocol: Prodrug hydrolysis in rat plasma
# Format: in vitro ADME
# cond: 37° C., depletion of starting material, read-out: Rat Plasma t1/2
assay metric: half-life at 0.5 mM (min)
Give bare numbers, in min.

CCCCCCCCOC(=O)Nc1nc(=O)n([C@@H]2CS[C@H](COC(=O)OCCCCCCCC)O2)cc1F [Compound 8] ... 16.7

Now consider a different compound.
Exercise: What half-life at 0.5 mM value was documented for this compound, CCCCOC(=O)Nc1nc(=O)n([C@@H]2CS[C@H](COC(=O)OCCCC)O2)cc1F [Compound 4] ?
Solution: 5.8

====

Could you please report measured half-life for the items listed next?
# measurement protocol: Stability in single-round infectivity assay well media
# Format: in vitro ADME
# cond: RPMI1640, 10% FBS, 50% heat-inactivated human serum, 37° C.
Answers are plain numbers, in h.

CCCCCCCCOC(=O)Nc1nc(=O)n([C@@H]2CS[C@H](CO)O2)cc1F [Compound 16] ... 18

Now consider a different compound.
Exercise: What half-life value was documented for this compound, CC(=O)Oc1cc(C)cc(C)c1C(C)(C)CC(=O)Nc1nc(=O)n([C@@H]2CS[C@H](CO)O2)cc1F [Compound 25] ?
Solution: 0.83

====

# measurement protocol: Half-life of emtricitabine amidine prodrug in phosphate buffer
# Assay type: physicochemical
# cond: Phosphate Buffer (100 mM, pH 7.4), 37° C.
assay metric: half-life at 1 mM (h)
Give bare numbers, in h.

Exercise: What half-life at 1 mM value was documented for this compound, CN(C)/C=N\c1nc(=O)n([C@@H]2CS[C@H](CO)O2)cc1F ?
Solution: 95

====

# measurement protocol: Prodrug hydrolysis in human liver S9
# Assay type: in vitro ADME
# cond: pH 7.4, human liver S9 1.0 mg/mL, 37° C., depletion of starting material, read-out: Human Liver t1/2
assay metric: half-life at 0.5 mM (h)
Answers are plain numbers, in h.

CCCCOC(=O)Nc1nc(=O)n([C@@H]2CS[C@H](COC(=O)OCCCC)O2)cc1F ... 0.172

Now consider a different compound.
Exercise: What half-life at 0.5 mM value was documented for this compound, CCCCCCCCOC(=O)Nc1nc(=O)n([C@@H]2CS[C@H](COC(=O)OCCCCCCCC)O2)cc1F ?
Solution: 2.52

====

# measurement protocol: Half-life measurements in human skeletal muscle S9
# Assay type: in vitro ADME
# cond: Human muscle S9 (7.96 mg/mL), 37° C.
assay metric: half-life at 1 mM (h)
Give bare numbers, in h.

Exercise: What half-life at 1 mM value was documented for this compound, CC(=O)Oc1cc(C)cc(C)c1C(C)(C)CC(=O)Nc1nc(=O)n([C@@H]2CS[C@H](CO)O2)cc1F ?
Solution: 1
